assay: HPLC-assay for in-use stability after reconstitution with 4.2% sodium hydrogen carbonate solution (Example 3, peptides SEQ ID NO 11-23); type: physicochemical; conditions: +Mannitol/Lutrol; 4h
property label: in-use stability, Peptide [%] (%)

seq_string="KVFAGIPTV (listed as Homo sapiens) [PTP-005, Protein tyrosine phosphatase, receptor-type, Z polypeptide 1 peptide]" result=100.3
seq_string="NLDTLMTYV (listed as Homo sapiens) [NLGN4X-001, Neuroligin 4, X-linked peptide]" result=100.9
seq_string="AIIDGVESV (listed as Homo sapiens) [PTP-003, Protein tyrosine phosphatase, receptor-type, Z polypeptide 1 peptide]" result=100.5
seq_string="LTFGDVVAV (listed as Homo sapiens) [FABP7-001]" result=100.7
seq_string="TLGEFLKLDRERAKN (listed as Homo sapiens) [BIR-002, Baculoviral IAP repeat-containing 5 (survivin) peptide]" result=101.2
seq_string="GLWHHQTEV (listed as Homo sapiens) [NRCAM-001, Neuronal cell adhesion molecule peptide]" result=100.0
seq_string="AMTQLLAGV (listed as Homo sapiens) [TNC-001, Tenascin C peptide]" result=100.6
seq_string="TFSYVDPVITSISPKYG (listed as Homo sapiens) [MET-005, Met proto-oncogene peptide]" result=100.7
seq_string="KIQEILTQV (listed as Homo sapiens) [IGF2BP3-001]" result=100.6
seq_string="ALWAWPSEL (listed as Homo sapiens) [BCA-002, Brevican tumour-associated peptide]" result=99.6
seq_string="TMLARLASA (listed as Homo sapiens) [CSP-001, Chondroitin sulfate proteoglycan 4 peptide]" result=100.1

* * *

experiment: HPLC-assay for stability of peptides in lyophilised formulation on storage for 3 months (Example 4); assay type: physicochemical; conditions: +25° C. +/- 2° C.; 1 month
property label: stability of peptides in formulation, 1 M

seq_string="TFSYVDPVITSISPKYG (listed as Homo sapiens) [MET-005, Met proto-oncogene peptide]" result="97.49 % of Initial"
seq_string="NLDTLMTYV (listed as Homo sapiens) [NLGN4X-001, Neuroligin 4, X-linked peptide]" result="97.90 % of Initial"
seq_string="AIIDGVESV (listed as Homo sapiens) [PTP-003, Protein tyrosine phosphatase, receptor-type, Z polypeptide 1 peptide]" result="98.29 % of Initial"
seq_string="TMLARLASA (listed as Homo sapiens) [CSP-001, Chondroitin sulfate proteoglycan 4 peptide]" result="98.04 % of Initial"
seq_string="KVFAGIPTV (listed as Homo sapiens) [PTP-005, Protein tyrosine phosphatase, receptor-type, Z polypeptide 1 peptide]" result="98.16 % of Initial"
seq_string="KIQEILTQV (listed as Homo sapiens) [IGF2BP3-001]" result="98.01 % of Initial"
seq_string="AMTQLLAGV (listed as Homo sapiens) [TNC-001, Tenascin C peptide]" result="97.86 % of Initial"

* * *

assay: HPLC-assay for stability of peptides in lyophilised formulation on storage for 3 months (Example 4); format: physicochemical; settings: +25° C. +/- 2° C.; 3 months
Listed here are sequences together with their documented stability of peptides in formulation, 3 M.
property label: stability of peptides in formulation, 3 M

seq_string="AIIDGVESV (listed as Homo sapiens) [PTP-003, Protein tyrosine phosphatase, receptor-type, Z polypeptide 1 peptide]" result="98.29 % of Initial"
seq_string="GLWHHQTEV (listed as Homo sapiens) [NRCAM-001, Neuronal cell adhesion molecule peptide]" result="97.59 % of Initial"
seq_string="NLDTLMTYV (listed as Homo sapiens) [NLGN4X-001, Neuroligin 4, X-linked peptide]" result="96.41 % of Initial"
seq_string="TLGEFLKLDRERAKN (listed as Homo sapiens) [BIR-002, Baculoviral IAP repeat-containing 5 (survivin) peptide]" result="98.93 % of Initial"
seq_string="LTFGDVVAV (listed as Homo sapiens) [FABP7-001]" result="98.67 % of Initial"
seq_string="TFSYVDPVITSISPKYG (listed as Homo sapiens) [MET-005, Met proto-oncogene peptide]" result="97.21 % of Initial"
seq_string="ALWAWPSEL (listed as Homo sapiens) [BCA-002, Brevican tumour-associated peptide]" result="97.88 % of Initial"

* * *

test: HPLC-assay for in-use stability after reconstitution with 4.2% sodium hydrogen carbonate solution (Example 3, peptides SEQ ID NO 11-23); type: physicochemical; details: +Mannitol/Lutrol; 6h
Ends that are not written are not given here.
property label: in-use stability, Peptide [%] (%)

seq_string="AIIDGVESV (listed as Homo sapiens) [PTP-003, Protein tyrosine phosphatase, receptor-type, Z polypeptide 1 peptide]" result=100.1
seq_string="TMLARLASA (listed as Homo sapiens) [CSP-001, Chondroitin sulfate proteoglycan 4 peptide]" result=99.6
seq_string="KIQEILTQV (listed as Homo sapiens) [IGF2BP3-001]" result=100.7
seq_string="ALWAWPSEL (listed as Homo sapiens) [BCA-002, Brevican tumour-associated peptide]" result=98.9
seq_string="NLDTLMTYV (listed as Homo sapiens) [NLGN4X-001, Neuroligin 4, X-linked peptide]" result=100.5
seq_string="TLGEFLKLDRERAKN (listed as Homo sapiens) [BIR-002, Baculoviral IAP repeat-containing 5 (survivin) peptide]" result=100.9
seq_string="SLWAGVVVL [CHI-001]" result=100.2

* * *

experiment: HPLC-assay for stability of peptides in lyophilised formulation on storage for 3 months (Example 4); type: physicochemical; settings: -20° C. +/- 5° C.; 2 months
Listed here are sequences together with their documented stability of peptides in formulation, 2 M.
property label: stability of peptides in formulation, 2 M

seq_string="TMLARLASA (listed as Homo sapiens) [CSP-001, Chondroitin sulfate proteoglycan 4 peptide]" result="97.61 % of Initial"
seq_string="GLWHHQTEV (listed as Homo sapiens) [NRCAM-001, Neuronal cell adhesion molecule peptide]" result="97.86 % of Initial"
seq_string="KIQEILTQV (listed as Homo sapiens) [IGF2BP3-001]" result="97.54 % of Initial"
seq_string="LTFGDVVAV (listed as Homo sapiens) [FABP7-001]" result="97.60 % of Initial"

* * *

Listed here are sequences together with their documented in-use stability, peptide by HPLC-assay.
test: HPLC-assay for in-use stability after reconstitution with 4.2% sodium hydrogen carbonate solution (Example 2, peptides SEQ ID NO 1-10); assay type: physicochemical; conditions: no excipients; 3 h after reconstitution
property label: in-use stability, peptide by HPLC-assay (%)

seq_string="LAALPHSCL (listed as Homo sapiens) [RGS-001, RGS-5 tumour-associated peptide]" endpoint_unit=% result=64.6
seq_string="YVDPVITSI (listed as Homo sapiens) [MET-001, c-met proto-oncogene tumour-associated peptide]" endpoint_unit=% result=96.7
seq_string="SQDDIKGIQKLYGKRS (listed as Homo sapiens) [MMP-001, Matrix metalloproteinase 7 tumour-associated peptide]" endpoint_unit=% result=95.7
seq_string="LLGATCMFV (listed as Homo sapiens) [CCN-001, Cyclin D1 tumour-associated peptide]" endpoint_unit=% result=63.3
seq_string="SVASTITGV (listed as Homo sapiens) [ADF-001, Adipophilin tumour-associated peptide]" endpoint_unit=% result=100.0
seq_string="ALFDGDPHL (listed as Homo sapiens) [K67-001, KIAA0367 tumour-associated peptide]" endpoint_unit=% result=97.5
seq_string="VMAGDIYSV (listed as Homo sapiens) [ADF-002, Adipophilin tumour-associated peptide]" endpoint_unit=% result=97.2
seq_string="SVFAGVVGV (listed as Homo sapiens) [GUC-001, GUCY1A3 tumour-associated peptide]" endpoint_unit=% result=98.6
seq_string="ALADGVQKV (listed as Homo sapiens) [APO-001, Apolipoprotein L1 tumour-associated peptide]" endpoint_unit=% result=97.4

* * *

test: HPLC-assay for in-use stability after reconstitution with 4.2% sodium hydrogen carbonate solution (Example 2, peptides SEQ ID NO 1-10); assay type: physicochemical; details: +mannitol/lutrol; 3 h after reconstitution
property label: in-use stability, peptide by HPLC-assay

seq_string="VMAGDIYSV (listed as Homo sapiens) [ADF-002, Adipophilin tumour-associated peptide]" result=101.1%
seq_string="LAALPHSCL (listed as Homo sapiens) [RGS-001, RGS-5 tumour-associated peptide]" result=94.2%
seq_string="ALADGVQKV (listed as Homo sapiens) [APO-001, Apolipoprotein L1 tumour-associated peptide]" result=100.7%
seq_string="LLGATCMFV (listed as Homo sapiens) [CCN-001, Cyclin D1 tumour-associated peptide]" result=91.3%
seq_string="ALFDGDPHL (listed as Homo sapiens) [K67-001, KIAA0367 tumour-associated peptide]" result=101.6%
seq_string="SVASTITGV (listed as Homo sapiens) [ADF-001, Adipophilin tumour-associated peptide]" result=100.7%
seq_string="SVFAGVVGV (listed as Homo sapiens) [GUC-001, GUCY1A3 tumour-associated peptide]" result=100.6%
seq_string="SQDDIKGIQKLYGKRS (listed as Homo sapiens) [MMP-001, Matrix metalloproteinase 7 tumour-associated peptide]" result=100.2%
seq_string="YVDPVITSI (listed as Homo sapiens) [MET-001, c-met proto-oncogene tumour-associated peptide]" result=101.0%
